src = PubChem BioAssay

# assay-info: compound binding in COS7 lysate, probe aLAP1, primary screen, cell lysate, small-molecule microarray (AID 1124);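 also: lysate comes from COS7 cells expressing LAP1 and is applied at 0.3 µg/mL; score merges spot fluorescence near 667 nm with signal-to-noise over triplicate slides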
# condition-context: probe aLAP1, fluorescence, higher = more signal
Entries and their composite z-score values follow.
Lab note: jot the number down without any unit.

Below, each entry is followed by its recorded composite z-score result.
C=CCC(OC(C)=O)[C@@H]1[C@@H](N(Cc2ccc(-c3cccc(C(F)(F)F)c3)o2)C(=O)c2cccc3ccccc23)c2cc(OCCCO)ccc2N1C(=O)c1ccc2ccccc2c1 (stereo partly specified) ... -0.278
O=C1O[C@@H](c2ccccc2)[C@@H](c2ccccc2)N2[C@@H](c3ccc(OCCO)cc3)[C@]3(C(=O)Nc4ccc(C#CCCO)cc43)[C@@H](C(=O)Nc3nc4ccccc4s3)[C@H]12 ... 0.426
CC(C)C[C@@H]1NC(=O)C([C@@H](C)OCc2ccccc2)NC(=O)[C@@]23C(=O)N[C@@H](Cc4ccccc4)C2[C@H](C)[C@@]2(C)O[C@H]2C3/C=C/CC/C=C/CNC1=O (stereo partly specified) ... 0.184
C=CCC(OC(C)=O)[C@@H]1[C@@H](N(Cc2ccc(-c3ccccc3)cc2)C(=O)c2ccc(C)cc2)c2cc(OCCCO)ccc2N1C(=O)c1ccc2ccccc2c1 (stereo partly specified) ... -0.031
[N-]=[N+]=NCc1ccccc1C[C@@]1(C(=O)O)N=C(c2ccc(OCCCO)cc2)O[C@@H]1c1ccccc1CN=[N+]=[N-] ... 0.0036

Incoming: State, in one line, measured composite z-score of `O=C1N(Cc2ccccc2)c2ccccc2[C@H]2OC(c3ccc(OCCCO)cc3)=N[C@@]12Cc1ccccc1`
Outgoing: 1.1

Incoming: State, in one line, measured composite z-score of `COC(=O)[C@@H]1N=C(c2ccc(OCCCO)cc2)O[C@@H]1c1ccccc1CN=[N+]=[N-]`
Outgoing: -0.0169

Incoming: State, in one line, measured composite z-score of `[N-]=[N+]=NCc1ccccc1[C@@H]1OC(c2ccc(OCCCO)cc2)=N[C@]1(Cc1ccccc1)C(=O)NCc1ccccc1`
Outgoing: 0.388

Incoming: State, in one line, measured composite z-score of `C=CCOC(=O)[C@H]1[C@@H]2C(=O)O[C@@H](c3ccccc3)[C@@H](c3ccccc3)N2[C@@H](c2ccc(OCCOC(=O)[C@H]3C[C@H]4C(=O)NCC(=O)N4[C@H]3c3ccc(O)cc3)cc2)[C@]12C(=O)Nc1ccc(I)cc12`
Outgoing: 0.0174

Incoming: State, in one line, measured composite z-score of `C=CCN1C(=O)[C@]2(O[C@H](CCO)[C@@H]([Si](C)(C)c3ccc(OC)cc3)[C@@H]2C)c2ccccc21`
Outgoing: -0.116

Incoming: State, in one line, measured composite z-score of O=C1OCCC=C[C@H]2OC34C=CCN(c5ccc(Cl)cc5)C(=O)[C@H]3N(CCO)C(=O)[C@@H]4C12 (stereo partly specified)
Outgoing: -0.419

Incoming: State, in one line, measured composite z-score of C=CCC(OC(C)=O)[C@@H]1[C@@H](N(Cc2ccc(-c3cccc(C(F)(F)F)c3)o2)C(=O)Cc2ccc(F)cc2)c2cc(OCCCO)ccc2N1C(=O)c1ccc2ccccc2n1 (stereo partly specified)
Outgoing: -0.0949
